test system: human diploid fibroblasts (HDF-3); assay: G1-S progression assay (BrdU incorporation); format: cell-based; conditions: Homo sapiens, Fibroblast, read-out: G1/S Chkpt IC50
pIC50: −log10 of the molar value.
Catalogue of compounds with associated pIC50
measurement_kind: pIC50

structure_string=CNS(=O)(=O)Cc1ccc(NN=C2C(=O)Nc3ccc4ncccc4c32)cc1 measurement_kind=pIC50 observed_value="5.30 to 5.96"
structure_string=O=C1Nc2ccc3ncsc3c2C1=CNc1ccc(S(=O)(=O)Nc2ccccn2)cc1 measurement_kind=pIC50 observed_value="5.30 to 5.96"

---

target: CDK1 (Homo sapiens); assay: Cyclin dependent protein kinase substrate phosphorylation assay, CDK1; format: biochemical
Sequence (P06493 whole entry, species assumed): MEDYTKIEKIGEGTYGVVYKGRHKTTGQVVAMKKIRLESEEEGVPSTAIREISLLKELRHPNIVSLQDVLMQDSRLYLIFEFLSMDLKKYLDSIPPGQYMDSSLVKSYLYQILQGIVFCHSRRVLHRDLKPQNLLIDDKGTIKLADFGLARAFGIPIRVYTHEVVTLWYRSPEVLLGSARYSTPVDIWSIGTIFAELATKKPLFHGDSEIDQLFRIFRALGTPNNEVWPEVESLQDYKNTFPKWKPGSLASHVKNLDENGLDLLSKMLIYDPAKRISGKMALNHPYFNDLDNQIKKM
Sequence (P14635 whole entry partner, species assumed): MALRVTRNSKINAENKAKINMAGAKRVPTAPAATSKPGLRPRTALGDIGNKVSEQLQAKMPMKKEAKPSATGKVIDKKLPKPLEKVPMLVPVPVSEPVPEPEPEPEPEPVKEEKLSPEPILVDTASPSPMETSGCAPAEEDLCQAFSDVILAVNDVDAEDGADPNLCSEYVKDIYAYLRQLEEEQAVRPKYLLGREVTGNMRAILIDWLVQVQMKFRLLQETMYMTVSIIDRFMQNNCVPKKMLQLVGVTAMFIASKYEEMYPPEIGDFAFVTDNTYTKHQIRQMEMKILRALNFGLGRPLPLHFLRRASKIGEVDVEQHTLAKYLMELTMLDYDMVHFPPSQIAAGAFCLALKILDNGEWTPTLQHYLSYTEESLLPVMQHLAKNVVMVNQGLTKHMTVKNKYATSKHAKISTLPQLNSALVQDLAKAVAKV
measurement_kind: IC50

structure_string=O=C1Nc2ccc3ncsc3c2C1=CNc1ccc(S(=O)(=O)Nc2ccccn2)cc1 measurement_kind=IC50 observed_value="51 to 100 nM"

---

biological target: UniProt:P35968
Sequence (P35968 834-1162 limits assumed, species assumed): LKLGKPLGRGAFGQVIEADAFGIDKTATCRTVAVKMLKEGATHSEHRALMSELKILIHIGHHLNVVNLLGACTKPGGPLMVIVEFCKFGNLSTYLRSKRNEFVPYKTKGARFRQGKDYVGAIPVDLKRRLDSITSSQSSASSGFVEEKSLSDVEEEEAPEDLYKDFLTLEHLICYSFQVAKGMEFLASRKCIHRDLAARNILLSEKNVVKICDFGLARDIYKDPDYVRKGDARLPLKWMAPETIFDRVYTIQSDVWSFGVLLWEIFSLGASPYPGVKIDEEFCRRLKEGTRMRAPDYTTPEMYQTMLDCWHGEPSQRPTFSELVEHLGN
pIC50: −log10 of the molar value.
measurement_kind: pIC50

structure_string=CNS(=O)(=O)Cc1ccc(NN=C2C(=O)Nc3cc(C)c(O)c(C)c32)cc1 assay_target=UniProt:P35968 observed_value="< 7.00"
structure_string=CS(=O)(=O)Cc1ccc(NC=C2C(=O)Nc3ccc4ncsc4c32)cc1 assay_target=UniProt:P35968 observed_value="< 7.00"
structure_string=O=C1Nc2ccc3ncsc3c2C1=CNc1ccc(S(=O)(=O)Nc2ccccn2)cc1 assay_target=UniProt:P35968 observed_value="7.00 to 7.29"

---

Catalogue of molecules with associated IC50
tested on: MDA MB468; assay: MTT assay, MDA MB468; assay type: cell-based, human; conditions: Homo sapiens, MDA-MB-468, 72 h; read-out: MTT MDA MB468 IC50
measurement_kind: IC50

molecule="CN(C)S(=O)(=O)c1ccc(NC=C2C(=O)Nc3ccc(-c4cnco4)cc32)cc1 [Example 35]" measurement_kind=IC50 observed_value="> 5 µM"
molecule="CC(C)COC(=O)c1ccc2c(c1)C(=CNc1ccc(S(N)(=O)=O)cc1)C(=O)N2 [Example 103]" measurement_kind=IC50 observed_value="1.1 to 5 µM"
molecule="CS(=O)(=O)Cc1ccc(NC=C2C(=O)Nc3ccc4ncsc4c32)cc1 [Example 76]" measurement_kind=IC50 observed_value="> 5 µM"
molecule="CC(C)(CO)CNS(=O)(=O)c1ccc(NC=C2C(=O)Nc3ccc4ncsc4c32)cc1 [Example 77]" measurement_kind=IC50 observed_value="> 5 µM"
molecule="CNS(=O)(=O)Cc1ccc(NN=C2C(=O)Nc3cc(C)c(O)c(C)c32)cc1 [Example 99]" measurement_kind=IC50 observed_value="0.1 to 0.5 µM"
molecule="O=C1Nc2ccc3ncsc3c2C1=CNc1ccc2nn[nH]c2c1 [Example 101]" measurement_kind=IC50 observed_value="1.1 to 5 µM"

---

target: CDK2 (Homo sapiens)
pIC50: −log10 of the molar value.
Catalogue of molecules with associated pIC50
measurement_kind: pIC50

molecule=CNS(=O)(=O)Cc1ccc(NN=C2C(=O)Nc3ccc4ncccc4c32)cc1 measurement_kind=pIC50 observed_value="8.00 to 9.00"
molecule=O=C1Nc2ccc3ncsc3c2C1=CNc1ccc2nn[nH]c2c1 measurement_kind=pIC50 observed_value="7.30 to 7.96"
molecule="CCC(C)Cc1cccc2c1C(=NNc1ccc(S(N)(=O)=O)cc1)C(=O)N2 (stereo not drawn)" measurement_kind=pIC50 observed_value="8.00 to 9.00"
molecule=CN(C)S(=O)(=O)c1ccc(NC=C2C(=O)Nc3ccc(-c4cnco4)cc32)cc1 measurement_kind=pIC50 observed_value="8.00 to 9.00"
molecule=CS(=O)(=O)Cc1ccc(NC=C2C(=O)Nc3ccc4ncsc4c32)cc1 measurement_kind=pIC50 observed_value="7.30 to 7.96"
molecule=CC(C)COC(=O)c1ccc2c(c1)C(=CNc1ccc(S(N)(=O)=O)cc1)C(=O)N2 measurement_kind=pIC50 observed_value="8.00 to 9.00"

Reference source for all entries: patent US6541503B2
